biological target: Nuclear receptor subfamily 1 group I member 2 (Rattus norvegicus) (UniProt Q9R1A7); assay: Rat pregnane X receptor (rPXR) activation by small molecules, qHTS assay (AID 1346983); settings: rPXR luciferase reporter cells, One-Glo luminescence, 24 h; further: potency means the concentration at half of the fitted maximal effect; nearly all actives have a fitted effect of over 20% in size
Sequence (Q9R1A7 whole entry, looked up): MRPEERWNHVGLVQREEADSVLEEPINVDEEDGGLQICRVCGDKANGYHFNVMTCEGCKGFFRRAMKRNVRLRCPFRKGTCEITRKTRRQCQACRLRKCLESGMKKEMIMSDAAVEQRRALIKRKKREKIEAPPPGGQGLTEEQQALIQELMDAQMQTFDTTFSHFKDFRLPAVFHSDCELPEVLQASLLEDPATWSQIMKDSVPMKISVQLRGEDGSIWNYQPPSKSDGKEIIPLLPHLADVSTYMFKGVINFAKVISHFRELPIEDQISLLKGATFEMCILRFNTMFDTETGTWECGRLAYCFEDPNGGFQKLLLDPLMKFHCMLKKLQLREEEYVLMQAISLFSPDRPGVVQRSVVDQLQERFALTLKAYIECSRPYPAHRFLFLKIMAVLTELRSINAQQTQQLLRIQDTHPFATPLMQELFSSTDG
Results filed as inconclusive are left out. Calls of active or inactive are those of the source. The call rests on the fitted dose curve; in most records, active means well fitted activation curve with a large enough effect in the repeat runs; inconclusive means weak or mixed curves; inactive means no such curve, though single readings can be large or run the other way.
observed-property: Potency

The cases that follow already have their Potency on record.
{"compound": "CN(C)C(=O)CCSC(SCCC(=O)O)c1cccc(/C=C/c2ccc3ccc(Cl)cc3n2)c1 (centres undefined)", "target-system": "Nuclear receptor subfamily 1 group I member 2 (Rattus norvegicus) (UniProt Q9R1A7)", "Potency": "4.47 µM (active)"}
{"compound": "CCOc1ccc(N=Nc2ccc(N)cc2N)cc1", "target-system": "Nuclear receptor subfamily 1 group I member 2 (Rattus norvegicus) (UniProt Q9R1A7)", "Potency": "3.16 µM (active)"}

In plain terms, O=C1/C(=C\c2cccs2)CCC/C1=C\c1cccs1 has a documented Potency of 7.08 µM (active)

In plain terms, CC(=O)O[C@]1(C(C)=O)CC[C@H]2[C@@H]3CCC4=CC(=O)CC[C@]4(C)[C@@]3(F)[C@@H](O)C[C@@]21C has a documented Potency of 3.55 µM (active)

* * *

assay: qHTS assay for identifying genotoxic compounds that show differential cytotoxicity against isogenic chicken DT40 cell lines with known DNA damage response pathways - Rev3 mutant cell line (AID 743014); details: chicken DT40 Rev3-/- viability, CellTiter-Glo, 40 h; series mostly up to 68.4 µM; further: nearly all actives have a fitted effect of over 55% in size
Results filed as inconclusive are left out. Activity calls are given as the source filed them. Calls follow the shape of the dose curve; as a rule, active = well fitted cell-killing curve with a large enough effect in the repeat runs; inconclusive = weak or mixed curves, or effect the other way; inactive = no such curve, though single readings can be large or run the other way.
Hi! Could you answer with just one of these? label 1 = active, label 0 = inactive

Known results for molecules:
{"molecule": "CCCC(=O)Nc1ncnc2c1ncn2[C@@H]1O[C@@H]2COP(=O)(O)O[C@H]2[C@H]1OC(=O)CCC", "assigned-class": "label 0"}
{"molecule": "CO[C@H]1C[C@H](O[C@H]2[C@H](C)O[C@@H](O[C@@H]3/C(C)=C/C[C@@H]4C[C@@H](C[C@]5(C=C[C@H](C)[C@@H](C6CCCCC6)O5)O4)OC(=O)[C@@H]4C=C(C)[C@@H](O)[C@H]5OC/C(=C\\C=C\\[C@@H]3C)[C@]54O)C[C@@H]2OC)O[C@@H](C)[C@@H]1O", "assigned-class": "label 1"}

Outcome logged for CC(C(=O)O)c1ccc(N2Cc3ccccc3C2=O)cc1 (stereo not given) in this assay: label 0

Outcome logged for OC[C@@H](O)C(O)[C@H](O)CO in this assay: label 0

Outcome logged for CCCCC[C@H](O)/C=C/[C@H]1[C@H](O)CC(=O)[C@@H]1CCCCCCC(=O)O in this assay: label 0

Outcome logged for CC(C)(C)NCC(O)c1ccc(O)c(CO)n1 (stereo not given) in this assay: label 0

Outcome logged for COc1ccc(C(=O)Nc2ccccc2CCC2CCCCN2C)cc1 (stereo not given) in this assay: label 0

Outcome logged for O=C(Nc1ccc(Br)cc1)c1cc(Br)c(Br)s1 in this assay: label 1

Outcome logged for Nc1ccn(C[C@@H](CO)OCP(=O)(O)O)c(=O)n1 in this assay: label 0

* * *

target: Androgen receptor (Homo sapiens) (UniProt P10275); experiment: qHTS assay to identify small molecule antagonists of the androgen receptor (AR) signaling pathway using the MDA cell line (AID 743042; further: nearly all actives have a fitted effect of over 55% in size); details: MDA-kb2 AR-luc, MMTV luciferase, R1881 antagonist, 16 h; series mostly up to 70.3 µM
Sequence (P10275 whole entry, looked up): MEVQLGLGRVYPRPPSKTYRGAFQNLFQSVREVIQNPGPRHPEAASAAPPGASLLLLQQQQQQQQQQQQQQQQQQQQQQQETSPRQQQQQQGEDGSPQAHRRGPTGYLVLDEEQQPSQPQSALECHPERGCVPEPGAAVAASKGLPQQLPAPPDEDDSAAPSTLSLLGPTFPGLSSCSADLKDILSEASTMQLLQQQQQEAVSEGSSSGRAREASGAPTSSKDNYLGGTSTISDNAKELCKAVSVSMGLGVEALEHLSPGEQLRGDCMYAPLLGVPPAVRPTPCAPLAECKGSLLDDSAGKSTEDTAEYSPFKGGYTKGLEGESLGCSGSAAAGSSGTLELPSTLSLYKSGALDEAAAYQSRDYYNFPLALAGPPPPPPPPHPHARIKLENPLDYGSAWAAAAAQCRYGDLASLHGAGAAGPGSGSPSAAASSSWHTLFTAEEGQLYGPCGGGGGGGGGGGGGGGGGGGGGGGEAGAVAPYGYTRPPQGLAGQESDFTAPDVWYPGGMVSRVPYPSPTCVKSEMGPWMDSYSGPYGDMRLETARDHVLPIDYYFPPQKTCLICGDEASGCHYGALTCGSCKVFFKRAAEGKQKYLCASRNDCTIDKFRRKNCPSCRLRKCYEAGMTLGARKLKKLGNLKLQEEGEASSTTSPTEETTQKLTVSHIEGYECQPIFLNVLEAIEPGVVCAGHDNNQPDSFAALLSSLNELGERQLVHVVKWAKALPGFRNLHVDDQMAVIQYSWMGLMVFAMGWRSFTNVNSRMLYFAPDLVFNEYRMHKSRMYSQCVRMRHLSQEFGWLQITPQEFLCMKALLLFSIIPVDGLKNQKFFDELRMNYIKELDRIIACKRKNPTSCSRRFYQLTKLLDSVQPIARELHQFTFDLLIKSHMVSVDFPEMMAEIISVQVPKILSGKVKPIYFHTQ
Inconclusive results are not listed. The source made the active and inactive calls. Calls follow the shape of the dose curve; as a rule, active = well fitted inhibition curve with a large enough effect in the repeat runs; inconclusive = weak or mixed curves, or effect the other way; inactive = no such curve, though single readings can be large or run the other way.
Hi! Could you answer with just one of these? active, inactive

{"compound": "O=C(O)c1cccc(/C=C2/C[C@@H]3[C@@H](/C=C/[C@@H](O)C4CCCCC4)[C@H](O)C[C@@H]3O2)c1", "assigned-class": "inactive"}
{"compound": "CCCCCCCCCCCCOCCCN", "assigned-class": "inactive"}
{"compound": "CCCC(=O)N1CCCN(c2nc(N)c3cc(OC)c(OC)cc3n2)CC1", "assigned-class": "inactive"}
{"compound": "O=C(OC[C@H]1O[C@](O)(COC(=O)c2cccnc2)[C@@H](OC(=O)c2cccnc2)[C@@H]1OC(=O)c1cccnc1)c1cccnc1", "assigned-class": "inactive"}
{"compound": "C=C1CC[C@H](O)CC1=C/C=C1\\CCC[C@]2(C)[C@@H]([C@H](C)CC[C@@H](O)C(C)(C)O)CC[C@@H]12", "assigned-class": "inactive"}

Outcome logged for C=C1C(=O)O[C@H]2[C@H]1CC/C(C)=C\CC[C@@]1(C)O[C@@H]21 in this assay: active
